target: angiotensin II type 1 receptor (Oryctolagus cuniculus, UniProt P34976); construct: By using a specimen of isolated rabbit blood vessels; experiment: Angiotensin II antagonistic activity in isolated rabbit blood vessels; conditions: angiotensin II (10 nM)-induced contraction of rabbit thoracic aorta ring
Lab note: cut-off is 20 nM. Strictly less in IC50 is label 1. Exactly 20 nM or more is label 0.

[
  {
    "Substance Smiles": "CCCCc1nc(C)n(-c2ncc(OCCS(C)(=O)=O)cn2)c(=O)c1Cc1ccc(-c2ccccc2-c2nnn[nH]2)cc1",
    "Target Or System": "angiotensin II type 1 receptor (Oryctolagus cuniculus, UniProt P34976)",
    "Qualitative Label": "label 1"
  }
]

*Q* IC50 strictly < 20 nM for this compound? CCCCc1nc(C)n(-c2nc3ccccc3n2C)c(=O)c1Cc1ccc(-c2ccccc2-c2nnn[nH]2)cc1
*A* label 0

*Q* IC50 strictly < 20 nM for this compound? CCCCc1nc(C)n(-c2ncc(OCCCC(=O)O)cn2)c(=O)c1Cc1ccc(-c2ccccc2-c2nnn[nH]2)cc1
*A* label 1

*Q* IC50 strictly < 20 nM for this compound? CCCCc1nc(C)n(-c2ccc(C(F)(F)F)cn2)c(=O)c1Cc1ccc(-c2ccccc2-c2nnn[nH]2)cc1
*A* label 0

*Q* IC50 strictly < 20 nM for this compound? CCCCc1nc(C)n(-c2ncc(OCc3nc(-c4ccc5ccccc5c4)oc3C)cn2)c(=O)c1Cc1ccc(-c2ccccc2-c2nnn[nH]2)cc1
*A* label 0

*Q* IC50 strictly < 20 nM for this compound? CCCCc1nc(C)n(-c2ccon2)c(=O)c1Cc1ccc(-c2ccccc2-c2nnn[nH]2)cc1
*A* label 0

====

Reported pIC50 values for the following compounds.
Target: angiotensin II type 1 receptor (Oryctolagus cuniculus, UniProt P34976)
Construct: By using a specimen of isolated rabbit blood vessels
Sequence (P34976 1-359): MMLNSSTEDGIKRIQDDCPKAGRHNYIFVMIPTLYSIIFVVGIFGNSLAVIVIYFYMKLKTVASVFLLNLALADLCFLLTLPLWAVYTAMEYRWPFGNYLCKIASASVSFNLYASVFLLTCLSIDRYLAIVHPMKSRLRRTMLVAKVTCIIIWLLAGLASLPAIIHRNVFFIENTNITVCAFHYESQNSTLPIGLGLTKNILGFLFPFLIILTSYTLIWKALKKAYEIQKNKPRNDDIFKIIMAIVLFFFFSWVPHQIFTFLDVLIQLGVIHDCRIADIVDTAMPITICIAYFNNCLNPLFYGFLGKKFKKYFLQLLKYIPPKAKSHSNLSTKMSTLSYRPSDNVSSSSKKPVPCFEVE
Assay: Angiotensin II antagonistic activity in isolated rabbit blood vessels
Conditions: angiotensin II (10 nM)-induced contraction of rabbit thoracic aorta ring
When answering, recall that pIC50 equals minus log10 of the concentration in mol/L, and write that number alone.

[
  {
    "Compound": "CCCCc1nc(C)n(-c2ncc(OCCCNS(C)(=O)=O)cn2)c(=O)c1Cc1ccc(-c2ccccc2-c2nnn[nH]2)cc1 [Example 57]",
    "Numeric Result": 8.44
  }
]

pIC50 for CCCCc1nc(C)n(-c2ncc(OCCSC)cn2)c(=O)c1Cc1ccc(-c2ccccc2-c2nnn[nH]2)cc1 [Example 26] is 7.62

pIC50 for CCCCc1nc(C)n(-c2ccc(OC)cn2)c(=O)c1Cc1ccc(-c2ccccc2-c2nnn[nH]2)cc1 [Example 3] is 7.74

pIC50 for CCCCc1nc(C)n(-c2ncc(OCC(N)=O)cn2)c(=O)c1Cc1ccc(-c2ccccc2-c2nnn[nH]2)cc1 [Example 39] is 9.00

pIC50 for CCCCc1nc(C)n(-c2ncc(OC)cn2)c(=O)c1Cc1ccc(-c2ccccc2-c2nnn[nH]2)cc1 [Example 18] is 8.57

pIC50 for CCCCc1nc(C)n(-c2ncc(OCCCNS(=O)(=O)C(F)(F)F)cn2)c(=O)c1Cc1ccc(-c2ccccc2-c2nnn[nH]2)cc1 [Example 58] is 6.45

====

biological target: human PPARγ2 (Homo sapiens, UniProt P37231); construct: the amino acids 182 to 505 of human PPARγ2; expressed in transfected cells; host or cells: COS7 cells; assay: PPARγ activation activity, Gal4 chimera luciferase transfection assay using COS7 cells; format: cell-based; conditions: EC50, COS7 cells, Gal4-human PPARγ2 LBD chimera, luciferase reporter, 16 hours
Sequence (P37231 182-505): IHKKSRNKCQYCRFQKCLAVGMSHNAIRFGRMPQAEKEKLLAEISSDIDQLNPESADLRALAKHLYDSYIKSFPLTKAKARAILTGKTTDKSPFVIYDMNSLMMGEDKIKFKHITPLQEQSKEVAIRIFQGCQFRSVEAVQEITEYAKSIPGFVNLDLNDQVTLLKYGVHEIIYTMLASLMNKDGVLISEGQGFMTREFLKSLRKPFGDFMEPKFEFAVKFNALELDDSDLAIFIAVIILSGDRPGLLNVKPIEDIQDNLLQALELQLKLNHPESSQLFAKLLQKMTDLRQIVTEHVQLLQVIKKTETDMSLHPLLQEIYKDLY
Sequence (P04386 1-147 partner limits assumed): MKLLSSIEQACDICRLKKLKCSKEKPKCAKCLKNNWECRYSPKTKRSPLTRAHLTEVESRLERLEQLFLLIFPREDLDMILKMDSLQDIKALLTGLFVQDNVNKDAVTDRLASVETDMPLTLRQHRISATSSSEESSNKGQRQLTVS
pEC50: −log10 of the molar value.
Quantity: pEC50

pEC50 for CCCc1nc2c(C)cc(-c3nc4ccccc4n3C)cc2n1Cc1ccc(-c2ccccc2C(=O)O)cc1 [telmisartan, reference compound] is 5.30 to 6.00

====

target: human PPARγ2 (Homo sapiens); construct: the amino acids 182 to 505 of human PPARγ2; expressed in transfected cells; host or cells: COS7 cells; experiment: PPARγ activation activity, Gal4 chimera luciferase transfection assay using COS7 cells; format: cell-based; conditions: COS7 cells, Gal4-human PPARγ2 LBD chimera, luciferase reporter, 16 hours; read-out: EC50
Reported log10(EC50) values for the following compounds.
Friendly reminder: values = log10 of EC50, unit nM.

Study these solved cases before continuing.
[
  {
    "Substance Smiles": "CCCCc1nc(C)n(-c2ccnn2C)c(=O)c1Cc1ccc(-c2ccccc2-c2nnn[nH]2)cc1",
    "Quantity": "log10(EC50)",
    "Numeric Result": 3.52
  },
  {
    "Substance Smiles": "CCCCc1nc(C)n(-c2ccc(F)cn2)c(=O)c1Cc1ccc(-c2ccccc2-c2nnn[nH]2)cc1",
    "Quantity": "log10(EC50)",
    "Numeric Result": 3.56
  },
  {
    "Substance Smiles": "CCCCc1nc(C)n(-c2ncc(OCCCC(=O)NCC)cn2)c(=O)c1Cc1ccc(-c2ccccc2-c2nnn[nH]2)cc1",
    "Quantity": "log10(EC50)",
    "Numeric Result": 1.85
  },
  {
    "Substance Smiles": "CCCCc1nc(C)n(-c2ncc(OCCCC(N)=O)cn2)c(=O)c1Cc1ccc(-c2ccccc2-c2nnn[nH]2)cc1",
    "Quantity": "log10(EC50)",
    "Numeric Result": 1.90
  },
  {
    "Substance Smiles": "CCCCc1nc(C)n(-c2ncc(C(F)(F)F)cc2Cl)c(=O)c1Cc1ccc(-c2ccccc2-c2nnn[nH]2)cc1",
    "Quantity": "log10(EC50)",
    "Numeric Result": 2.23
  },
  {
    "Substance Smiles": "CCCCc1nc(C)n(-c2ncc(OCC)cn2)c(=O)c1Cc1ccc(-c2ccccc2-c2nnn[nH]2)cc1",
    "Quantity": "log10(EC50)",
    "Numeric Result": 3.20
  }
]

Okay, next one:
log10(EC50) for CCCCOc1cnc(-n2c(C)nc(CCCC)c(Cc3ccc(-c4ccccc4-c4nnn[nH]4)cc3)c2=O)nc1 is 2.93

====

Reported pEC50 values for the following compounds.
biological target: human PPARγ2 (Homo sapiens); construct: the amino acids 182 to 505 of human PPARγ2; expressed in transfected cells; host or cells: COS7 cells; experiment: PPARγ activation activity, Gal4 chimera luciferase transfection assay using COS7 cells; type: cell-based; conditions: COS7 cells, Gal4-human PPARγ2 LBD chimera, luciferase reporter, 16 hours; read-out: EC50
When answering, recall that pEC50 equals minus log10 of the concentration in mol/L, and write that number alone.

Study these solved cases before continuing.
[
  {
    "Compound": "CCCCc1nc(C)n(-c2ncc(OC3CCCCC3)cn2)c(=O)c1Cc1ccc(-c2ccccc2-c2nnn[nH]2)cc1 [Example 28]",
    "Target Or System": "human PPARγ2 (Homo sapiens)",
    "pEC50": 5.91
  },
  {
    "Compound": "CCCCc1nc(C)n(-c2ccc3ccccc3n2)c(=O)c1Cc1ccc(-c2ccccc2-c2nnn[nH]2)cc1 [Example 66]",
    "Target Or System": "human PPARγ2 (Homo sapiens)",
    "pEC50": 6.09
  },
  {
    "Compound": "CCCCc1nc(C)n(-c2cc(OC)nc(OC)n2)c(=O)c1Cc1ccc(-c2ccccc2-c2nnn[nH]2)cc1 [Example 59]",
    "Target Or System": "human PPARγ2 (Homo sapiens)",
    "pEC50": 5.91
  }
]

pEC50 for CCCCc1nc(C)n(-c2nc3ccccc3n2C)c(=O)c1Cc1ccc(-c2ccccc2-c2nnn[nH]2)cc1 [Example 69] is 5.57

====

molecular target: angiotensin II type 1 receptor (Oryctolagus cuniculus, UniProt P34976); construct: By using a specimen of isolated rabbit blood vessels; test: Angiotensin II antagonistic activity in isolated rabbit blood vessels; settings: angiotensin II (10 nM)-induced contraction of rabbit thoracic aorta ring
Quantity: IC50 (nM)
Field format: number, assumed nM, no unit text.

[
  {
    "Molecule": "CCCCc1nc(C)n(-c2ncccc2Cl)c(=O)c1Cc1ccc(-c2ccccc2-c2nnn[nH]2)cc1",
    "IC50 / nM": 24
  }
]

IC50 for CCCCc1nc(C)n(-c2ccnn2C)c(=O)c1Cc1ccc(-c2ccccc2-c2nnn[nH]2)cc1 is 652

IC50 for CCCCc1nc(C)n(-c2ncc(OCC(=O)N(CC)CC)cn2)c(=O)c1Cc1ccc(-c2ccccc2-c2nnn[nH]2)cc1 is 8.7
